- Test system: SF-295 CNS
- MEASUREMENT NOTES: NCI-60 one-dose screen, 48 h (100 = growth as untreated, 0 = no growth, -100 = all killed)
- CONDITION DETAILS: 10 µM unless noted
The panel holds about 83,000 compounds, 20% with a hit somewhere; the sample as a whole holds those more often.
As shown below, each of these compounds has a reported growth value.
Just the number in %, nothing appended.

| COMPOUND | growth / % |
| --- | --- |
| C=CCCCCCCCCC(=O)[O-].C=CCCCCCCCCC(=O)[O-].[Zn+2] | 97.7 |
| O=C(N/N=C/c1ccc(N(CCCl)CCCl)cc1)c1cccc2ccccc12 | 78.7 |
| O=C1C2CC=CCC2C(=O)N1SC(Cl)(Cl)Cl (stereo not given) | 134 |
| O=C(O)C(Cl)(Cl)C(F)(F)F | 99.9 |

Continue with the next compound.
# growth lookup, item Cc1cc(N(CCCl)CCCl)ccc1C=Nc1ccc(-c2csc(Cc3ccccc3)n2)cc1
13.4

Taken from PubChem BioAssay (NCI).
